tested on: HGC-27; assay: Antiproliferative activity against human HGC-27 cells assessed as inhibition of cell proliferation incubated for 72 hrs by MTT assay; format: functional, cell-based; conditions: HGC-27, 72 h
Recorded measurements of log10 IC50, one per entry
Values reflect log10 of reported IC50 (nM).

Examples with answers:
CC(C)[C@]12O[C@H]1[C@@H]1O[C@]13[C@]1(O[C@H]1C[C@H]1C4=C(CC[C@@]13C)C(=S)OC4)[C@@H]2O: 2.52
CC(C)[C@]12O[C@H]1[C@@H]1O[C@@]13[C@@]1(C)CCC4=C(COC4=O)[C@@H]1C[C@@H]1O[C@@]13C2=O [TRIPTONIDE]: 2.00
CC(C)[C@]12O[C@H]1[C@@H]1O[C@@]13[C@@]1(C)CCC4=C(COC4=S)[C@@H]1C[C@@H]1O[C@@]13C2=O: 2.79

Any idea what log10 IC50 was measured for CC(C)[C@]12O[C@H]1[C@@H]1O[C@]13[C@]1(O[C@H]1C[C@H]1C4=C(CC[C@@]13C)C(=S)OC4)[C@H]2O ?
2.85

Param item: CC(C)[C@]12O[C@H]1[C@@H]1O[C@]13[C@]1(O[C@H]1C[C@H]1C4=C(CC[C@@]13C)C(=O)OC4)[C@@H]2O [TRIPTOLIDE]
1.30

* * *

assay: Selectivity index, ratio of IC50 for antiproliferative activity against human LO2 cells to IC50 for antiproliferative activity against human AGS cells; format: cell-based; details: LO2 cells and AGS cells, read-out: Ratio IC50
Measurement Label: selectivity ratio

Examples with answers:
CC(C)[C@]12O[C@H]1[C@@H]1O[C@@]13[C@@]1(C)CCC4=C(COC4=S)[C@@H]1C[C@@H]1O[C@@]13C2=O: 3.26
CC(C)[C@]12O[C@H]1[C@@H]1O[C@]13[C@]1(O[C@H]1C[C@H]1C4=C(CC[C@@]13C)C(=S)OC4)[C@H]2O: 2.68

Any idea what selectivity ratio was measured for CC(C)[C@]12O[C@H]1[C@@H]1O[C@]13[C@]1(O[C@H]1C[C@H]1C4=C(CC[C@@]13C)C(=O)OC4)[C@@H]2O [TRIPTOLIDE] ?
1.08

Param item: CC(C)[C@]12O[C@H]1[C@@H]1O[C@]13[C@]1(O[C@H]1C[C@H]1C4=C(CC[C@@]13C)C(=S)OC4)[C@@H]2O
4.55

* * *

tested on: U-251; experiment: Antiproliferative activity against human U-251 cells assessed as inhibition of cell proliferation incubated for 72 hrs by MTT assay; type: functional, cell-based; conditions: U-251, 72 h
Recorded measurements of pIC50, one per entry
// pIC50 is dimensionless: -log10 of concentration (M)

CC(C)[C@]12O[C@H]1[C@@H]1O[C@@]13[C@@]1(C)CCC4=C(COC4=S)[C@@H]1C[C@@H]1O[C@@]13C2=O: 5.61
CC(C)[C@]12O[C@H]1[C@@H]1O[C@]13[C@]1(O[C@H]1C[C@H]1C4=C(CC[C@@]13C)C(=S)OC4)[C@@H]2O: 5.79
CC(C)[C@]12O[C@H]1[C@@H]1O[C@]13[C@]1(O[C@H]1C[C@H]1C4=C(CC[C@@]13C)C(=S)OC4)[C@H]2O: 5.20
CC(C)[C@]12O[C@H]1[C@@H]1O[C@]13[C@]1(O[C@H]1C[C@H]1C4=C(CC[C@@]13C)C(=O)OC4)[C@@H]2O [TRIPTOLIDE]: 7.70

Next compound, please.
Any idea what pIC50 was measured for CC(C)[C@]12O[C@H]1[C@@H]1O[C@@]13[C@@]1(C)CCC4=C(COC4=O)[C@@H]1C[C@@H]1O[C@@]13C2=O [TRIPTONIDE] ?
7.70
